# assay summary: Partition coefficient (logP)
# Type: physicochemical
# experimental conditions: octanol/water; read-out: logP
metric name: logP

I: CCCOC(=O)/C=C(C)/C=C/CC(C)CCCC(C)C (stereo unspecified)
II: CCOC(=O)/C=C(C)/C=C/CC(C)CCC(O)C(C)C (stereo unspecified)
**Q:** Identify the entry with the smaller logP: I or II . In your reply, give the label of the chosen option.
**A:** II
(II: 4.65, I: 7.28)

###

# assay summary: Partition coefficient (logP)
# Type: physicochemical
# experimental conditions: octanol/water; read-out: logP
metric name: logP

molecule	reported result
C#CCCOC(=O)/C=C(C)/C=C/CC(C)CCCC(C)(C)OC (stereo unspecified)	5.2
CCC(=O)/C=C(C)/C=C/CC(C)CCCC(C)(C)OC (stereo unspecified)	5.07
COC(C)(C)CCCC(C)C/C=C/C(C)=C/C(=O)N(C)C (stereo unspecified)	3.74
CCN(CC)C(=O)/C=C(C)/C=C/CC(C)CCCC(C)(C)OC (stereo unspecified)	4.82
CCOC(=O)/C=C(C)/C=C/CC(C)CCCC(C)(C)Cl (stereo unspecified)	6.44
CC(/C=C/CC(C)CCCC(C)(C)O)=C\C(=O)OC(C)C (stereo unspecified)	5.06
